Give pIC50 for every item shown.
- Tested on: MCF7
- ASSAY_OVERVIEW: Cytotoxicity against human MCF7 cells after 72 hrs by SRB assay
- Assay type: functional, cell-based
- TEST_PARAMETERS: MCF7, 72 h
Scale explanation: pIC50 corresponds to minus log10 of a concentration expressed in moles per litre.

State its pIC50: CC(=O)O[C@@]1([C@@H]2/C(C)=C(/OC(=O)OCc3ccccc3)C(=O)C3=C(C)[C@@H](OC(=O)[C@H](O)[C@H](CC(C)C)NC(=O)OC(C)(C)C)C[C@@](O)([C@H]2OC(=O)c2ccccc2)C3(C)C)CO[C@@H]1CCO
7.28

State its pIC50: CC(=O)O[C@@]1([C@@H]2/C(C)=C(/OC(=O)OC(C)(C)C)C(=O)C3=C(C)[C@@H](OC(=O)[C@H](O)[C@H](CC(C)C)NC(=O)OC(C)(C)C)C[C@@](O)([C@H]2OC(=O)c2ccccc2)C3(C)C)CO[C@@H]1CCOC(=O)OC(C)(C)C
7.29

State its pIC50: CC(=O)O/C1=C(\C)[C@@H]([C@]2(OC(C)=O)CO[C@@H]2CCO)[C@H](OC(=O)c2ccccc2)[C@]2(O)C[C@H](OC(=O)[C@H](O)[C@H](CC(C)C)NC(=O)OC(C)(C)C)C(C)=C(C1=O)C2(C)C
7.74

###

- Test system: MCF7
- ASSAY_OVERVIEW: Cytotoxicity against human MCF7 cells after 72 hrs by SRB assay
- Format: functional, cell-based
- TEST_PARAMETERS: MCF7, 72 h
Give IC50 for every item shown.
Form entry: value (nM) — number only.

State its IC50: CC(=O)O[C@@]1([C@@H]2/C(C)=C(/O)C(=O)C3=C(C)[C@@H](OC(=O)[C@H](O)[C@H](CC(C)C)NC(=O)OC(C)(C)C)C[C@@](O)([C@H]2OC(=O)c2ccccc2)C3(C)C)CO[C@@H]1CCO
14

State its IC50: CC(=O)OCC[C@H]1OC[C@@]1(OC(C)=O)[C@@H]1/C(C)=C(/OC(C)=O)C(=O)C2=C(C)[C@@H](OC(=O)[C@H](O)[C@H](CC(C)C)NC(=O)OC(C)(C)C)C[C@@](O)([C@H]1OC(=O)c1ccccc1)C2(C)C
36
